# target.or.system: T1, human TIM-3 full length, overexpressed on CHO-S cells (human, UniProt Q8TDQ0 22-301)
# T1 construct: cells fixed with 4% PFA on plates; also called HAVCR2; Tim-3-overexpressing CHO-S cells
# method: cell-based ELISA on CHO-S cells overexpressing human TIM-3
measurement.kind: EC50 (nM)

>>> recorded_measurement("h1701-009 (antibody, human IgG4 S228P, kappa, V domains shown, Humanized IgG4 (S228P)/kappa) VH: QVQLVQSGAEVKKPGASVKVSCKASGYTFTDYYMNWVRQAPGQGLEWMGDIIPNNGGSKYNQKFKDRVTMTTDTSTSTAYMELRSLRSDDTAVYYCATWGYGSSYRWFDYWGQGTLVTVSS VL: DIQMTQSPSSLSASVGDRVTITCLASQPIGIWLAWYQQKPGKAPKLLIYAATSLADGVPSRFSGSGSGTDFTFTISSLQPEDIATYYCQQLYSSPWTFGGGTKVEIKR")
0.503
>>> recorded_measurement("h1701-009NMA (antibody, human IgG4 S228P, kappa, V domains shown, HCDR2 point-mutation variant of h1701-009 (NNG to NMA); IgG4 (S228P)/kappa) VH: QVQLVQSGAEVKKPGASVKVSCKASGYTFTDYYMNWVRQAPGQGLEWMGDIIPNMAGSKYNQKFKDRVTMTTDTSTSTAYMELRSLRSDDTAVYYCATWGYGSSYRWFDYWGQGTLVTVSS VL: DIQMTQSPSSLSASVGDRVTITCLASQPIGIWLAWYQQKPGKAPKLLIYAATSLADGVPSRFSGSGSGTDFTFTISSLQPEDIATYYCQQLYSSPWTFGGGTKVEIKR")
0.629
>>> recorded_measurement("h1701-009NNA (antibody, human IgG4 S228P, kappa, V domains shown, HCDR2 point-mutation variant of h1701-009 (NNG to NNA); IgG4 (S228P)/kappa) VH: QVQLVQSGAEVKKPGASVKVSCKASGYTFTDYYMNWVRQAPGQGLEWMGDIIPNNAGSKYNQKFKDRVTMTTDTSTSTAYMELRSLRSDDTAVYYCATWGYGSSYRWFDYWGQGTLVTVSS VL: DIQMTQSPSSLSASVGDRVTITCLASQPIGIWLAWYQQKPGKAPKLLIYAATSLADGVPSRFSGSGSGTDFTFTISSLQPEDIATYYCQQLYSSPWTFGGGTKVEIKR")
0.515
>>> recorded_measurement("h1701-009NHG (antibody, human IgG4 S228P, kappa, V domains shown, HCDR2 point-mutation variant of h1701-009 (NNG to NHG); IgG4 (S228P)/kappa) VH: QVQLVQSGAEVKKPGASVKVSCKASGYTFTDYYMNWVRQAPGQGLEWMGDIIPNHGGSKYNQKFKDRVTMTTDTSTSTAYMELRSLRSDDTAVYYCATWGYGSSYRWFDYWGQGTLVTVSS VL: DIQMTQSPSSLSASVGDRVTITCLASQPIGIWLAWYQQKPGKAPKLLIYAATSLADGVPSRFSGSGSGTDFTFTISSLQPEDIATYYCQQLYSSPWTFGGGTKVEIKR")
0.317
>>> recorded_measurement("h1701-009NEA (antibody, human IgG4 S228P, kappa, V domains shown, HCDR2 point-mutation variant of h1701-009 (NNG to NEA); IgG4 (S228P)/kappa) VH: QVQLVQSGAEVKKPGASVKVSCKASGYTFTDYYMNWVRQAPGQGLEWMGDIIPNEAGSKYNQKFKDRVTMTTDTSTSTAYMELRSLRSDDTAVYYCATWGYGSSYRWFDYWGQGTLVTVSS VL: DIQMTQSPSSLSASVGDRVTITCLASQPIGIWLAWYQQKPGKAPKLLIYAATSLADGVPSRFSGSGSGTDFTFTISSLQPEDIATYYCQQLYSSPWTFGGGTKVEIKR")
0.667
>>> recorded_measurement("h1701-009NEG (antibody, human IgG4 S228P, kappa, V domains shown, HCDR2 point-mutation variant of h1701-009 (NNG to NEG); IgG4 (S228P)/kappa) VH: QVQLVQSGAEVKKPGASVKVSCKASGYTFTDYYMNWVRQAPGQGLEWMGDIIPNEGGSKYNQKFKDRVTMTTDTSTSTAYMELRSLRSDDTAVYYCATWGYGSSYRWFDYWGQGTLVTVSS VL: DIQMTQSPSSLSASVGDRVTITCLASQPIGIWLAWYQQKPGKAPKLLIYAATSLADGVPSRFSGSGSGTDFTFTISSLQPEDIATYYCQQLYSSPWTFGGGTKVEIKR")
0.673
>>> recorded_measurement("h1701-009NAG (antibody, human IgG4 S228P, kappa, V domains shown, HCDR2 point-mutation variant of h1701-009 (NNG to NAG); IgG4 (S228P)/kappa) VH: QVQLVQSGAEVKKPGASVKVSCKASGYTFTDYYMNWVRQAPGQGLEWMGDIIPNAGGSKYNQKFKDRVTMTTDTSTSTAYMELRSLRSDDTAVYYCATWGYGSSYRWFDYWGQGTLVTVSS VL: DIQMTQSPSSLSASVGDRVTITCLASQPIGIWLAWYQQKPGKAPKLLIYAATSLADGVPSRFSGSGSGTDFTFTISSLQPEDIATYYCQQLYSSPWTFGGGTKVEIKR")
0.512
>>> recorded_measurement("h1701-009NVG (antibody, human IgG4 S228P, kappa, V domains shown, HCDR2 point-mutation variant of h1701-009 (NNG to NVG); IgG4 (S228P)/kappa) VH: QVQLVQSGAEVKKPGASVKVSCKASGYTFTDYYMNWVRQAPGQGLEWMGDIIPNVGGSKYNQKFKDRVTMTTDTSTSTAYMELRSLRSDDTAVYYCATWGYGSSYRWFDYWGQGTLVTVSS VL: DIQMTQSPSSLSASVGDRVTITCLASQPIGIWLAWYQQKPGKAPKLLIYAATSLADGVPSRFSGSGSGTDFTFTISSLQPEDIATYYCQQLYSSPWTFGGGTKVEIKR")
0.717
>>> recorded_measurement("h1701-009NMG (antibody, human IgG4 S228P, kappa, V domains shown, HCDR2 point-mutation variant of h1701-009 (NNG to NMG); IgG4 (S228P)/kappa) VH: QVQLVQSGAEVKKPGASVKVSCKASGYTFTDYYMNWVRQAPGQGLEWMGDIIPNMGGSKYNQKFKDRVTMTTDTSTSTAYMELRSLRSDDTAVYYCATWGYGSSYRWFDYWGQGTLVTVSS VL: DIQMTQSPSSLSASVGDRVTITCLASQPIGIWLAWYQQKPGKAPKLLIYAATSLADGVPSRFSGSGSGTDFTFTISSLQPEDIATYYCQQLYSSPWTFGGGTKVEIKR")
0.603
>>> recorded_measurement("h1701-009NLG (antibody, human IgG4 S228P, kappa, V domains shown, HCDR2 point-mutation variant of h1701-009 (NNG to NLG); IgG4 (S228P)/kappa) VH: QVQLVQSGAEVKKPGASVKVSCKASGYTFTDYYMNWVRQAPGQGLEWMGDIIPNLGGSKYNQKFKDRVTMTTDTSTSTAYMELRSLRSDDTAVYYCATWGYGSSYRWFDYWGQGTLVTVSS VL: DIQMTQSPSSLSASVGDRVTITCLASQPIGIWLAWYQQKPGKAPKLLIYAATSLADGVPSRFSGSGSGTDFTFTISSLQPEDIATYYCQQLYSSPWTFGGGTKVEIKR")
0.637
>>> recorded_measurement("h1701-009NHA (antibody, human IgG4 S228P, kappa, V domains shown, HCDR2 point-mutation variant of h1701-009 (NNG to NHA); IgG4 (S228P)/kappa) VH: QVQLVQSGAEVKKPGASVKVSCKASGYTFTDYYMNWVRQAPGQGLEWMGDIIPNHAGSKYNQKFKDRVTMTTDTSTSTAYMELRSLRSDDTAVYYCATWGYGSSYRWFDYWGQGTLVTVSS VL: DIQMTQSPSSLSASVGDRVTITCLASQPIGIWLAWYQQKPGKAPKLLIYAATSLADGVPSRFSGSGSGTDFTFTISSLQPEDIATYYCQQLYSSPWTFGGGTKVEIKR")
0.53
